System: LOC_OS06G16330-cb003;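 further: purified Escherichia coli-expressed rice kinase domain construct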
Sequence (as listed by the source): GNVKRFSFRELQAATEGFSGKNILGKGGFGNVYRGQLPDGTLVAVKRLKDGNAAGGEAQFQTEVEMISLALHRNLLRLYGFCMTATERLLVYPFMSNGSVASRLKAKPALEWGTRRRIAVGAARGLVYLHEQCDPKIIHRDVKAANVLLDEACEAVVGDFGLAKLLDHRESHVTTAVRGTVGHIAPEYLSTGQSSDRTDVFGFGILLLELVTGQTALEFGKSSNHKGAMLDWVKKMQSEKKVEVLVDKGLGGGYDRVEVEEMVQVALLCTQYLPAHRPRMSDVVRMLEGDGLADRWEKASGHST
Assay: thermal shift delta Tm vs DMSO control; higher = stronger stabilization (binding)
Settings: 12.5 µM; protein concentration 2 µM
Value Kind: thermal shift delta Tm (°C)
# number only, unit °C dropped from output

# annotated cases, reported thermal shift delta Tm shown
>  <Smiles Str>
O=C(O)c1ccc(Nc2ncc3c(n2)-c2ccc(Cl)cc2C(c2c(F)cccc2F)=NC3)cc1

>  <Recorded Value>
-0.12

$$$$
>  <Smiles Str>
O=c1cc(N2CCOCC2)oc2c(-c3ccccc3)cccc12

>  <Recorded Value>
0.37

$$$$

Query CNC(=O)c1cc(Oc2ccc3nc(N[C@@H]4CCCC[C@H]4O)sc3c2)ccn1 yields thermal shift delta Tm of 0.27
